# System: HeLa Kyoto;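 note: HeLa Kyoto cells arrested at G1/S by double thymidine block, proteins quantified by TMT10plex mass spectrometry in mild NP-40 versus SDS extracts, three biological replicates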
# Procedure details: solubility in G1/S (NP-40 vs SDS abundance) (log2 ratio); higher = more soluble
# Condition parameters: cell cycle stage: G1/S
Readout kind: solubility in G1/S (log2)
# print the numeric value only

solubility in G1/S (log2) lookup needed for MEMKKKINLELRNRSPEEVTELVLDNCLCVNGEIEGLNDTFKELEFLSMANVELSSLARLPSLNKLRKLELSDNIISGGLEVLAEKCPNLTYLNLSGNKIKDLSTVEALQNLKNLKSLDLFNCEITNLEDYRESIFELLQQITYLDGFDQEDNEAPDSEEEDDEDGDEDDEEEEENEAGPPEGYEEEEEEEEEEDEDEDEDEDEAGSELGEGEEEVGLSYLMKEEIQDEEDDDDYVEEGEEEEEEEEGGLRGEKRKRDAEDDGEEEDD [ANP32E] , thanks. -0.46

Again, but for MARNAEKAMTALARFRQAQLEEGKVKERRPFLASECTELPKAEKWRRQIIGEISKKVAQIQNAGLGEFRIRDLNDEINKLLREKGHWEVRIKELGGPDYGKVGPKMLDHEGKEVPGNRGYKYFGAAKDLPGVRELFEKEPLPPPRKTRAELMKAIDFEYYGYLDEDDGVIVPLEQEYEKKLRAELVEKWKAEREARLARGEKEEEEEEEEEINIYAVTEEESDEEGSQEKGGDDSQQKFIAHVPVPSQQEIEEALVRRKKMELLQKYASETLQAQSEEARRLLGY [ISY1] 0.128

Again, but for MVWKRLGALVMFPLQMIYLVVKAAVGLVLPAKLRDLSRENVLITGGGRGIGRQLAREFAERGARKIVLWGRTEKCLKETTEEIRQMGTECHYFICDVGNREEVYQTAKAVREKVGDITILVNNAAVVHGKSLMDSDDDALLKSQHINTLGQFWTTKAFLPRMLELQNGHIVCLNSVLALSAIPGAIDYCTSKASAFAFMESLTLGLLDCPGVSATTVLPFHTSTEMFQGMRVRFPNLFPPLKPETVARRTVEAVQLNQALLLLPWTMHALVILKSILPQAALEEIHKFSGTYTCMNTFKGRT [DHRS3] -0.137
